Hey, just so you know, these numbers are from the array DNA melting data of Ke et al. (doi:10.1101/2024.01.08.574731).

ASSAY_INFO: folding enthalpy; higher = less favourable; fluorescence melt of hairpins on a sequencing array, two-state fit
REPORTED_CONDITIONS: sodium 0.088 M
Classification by folding enthalpy | ranges: lo: < -30 kcal/mol; med: ≥ -30 kcal/mol and < -20 kcal/mol; hi: ≥ -20 kcal/mol

[[record]]
sequence_content = "GCGCGGCGAAAGCACCGC (((..((....))..)))"
class_name = "hi"

[[record]]
sequence_content = "GATCCGGGTACGGATC ((((((....))))))"
class_name = "lo"

[[record]]
sequence_content = "GGACGGCGAAAGCCATCC (((.(((....))).)))"
class_name = "med"

[[record]]
sequence_content = "GGAGGCGAAAGCCGTTCC ((((((....)))..)))"
class_name = "hi"

[[record]]
sequence_content = "GCGACGATCGC ((((...))))"
class_name = "hi"

[[record]]
sequence_content = "GTTCTTGAAAAAGAAC ((((((....))))))"
class_name = "lo"

[[record]]
sequence_content = "GATCGCACAGGCGATC ((((((....))))))"
class_name = "lo"

[[record]]
sequence_content = "GACTCGGGAAACCGAGCC (.(((((....))))).)"
class_name = "hi"

[[record]]
sequence_content = "GCGAACGAAAGTTGTCGC ((((((....)))..)))"
class_name = "med"

[[record]]
sequence_content = "GACCCCGGAAACGAGGTC ((((.((....)).))))"
class_name = "lo"

[[record]]
sequence_content = "GGTAGAGGAAACTTTACC ((((.((....)).))))"
class_name = "med"

[[record]]
sequence_content = "GATCCGCCTCCGGATC ((((((....))))))"
class_name = "lo"

[[record]]
sequence_content = "GTGCAAGGAAACTTACAC (((.(((....))).)))"
class_name = "med"

[[record]]
sequence_content = "GGTAACGAAAGTTAACC ((((((....))).)))"
class_name = "hi"

[[record]]
sequence_content = "GTATGGAAACATAC (((((....)))))"
class_name = "med"

[[record]]
sequence_content = "CGACGGCGGAAACGCTCG (((..(((....))))))"
class_name = "hi"

[[record]]
sequence_content = "GACAGCGGAAACGTTGTC ((((.((....)).))))"
class_name = "lo"

[[record]]
sequence_content = "GTTCGCGAAAGCGCTAAC ((((((....)))..)))"
class_name = "hi"

[[record]]
sequence_content = "CAGGGGAAACCCTG (((((....)))))"
class_name = "med"

[[record]]
sequence_content = "GATCAAAGGTTTGATC ((((((....))))))"
class_name = "lo"

[[record]]
sequence_content = "GATCAATTGATTGATC ((((((....))))))"
class_name = "lo"

[[record]]
sequence_content = "GCCATTGAAAAATGGC ((((((....))))))"
class_name = "lo"

[[record]]
sequence_content = "GATCGCGCTGGCGATC ((((((....))))))"
class_name = "lo"

[[record]]
sequence_content = "GCGTTCCCGAAAGGGCGC (((..(((....))))))"
class_name = "med"


----------
ASSAY_INFO: melting temperature; fluorescence melt of hairpins on a sequencing array, two-state fit, raised by 9.35 °C to match UV melts
REPORTED_CONDITIONS: sodium 0.088 M
REPORTED_PROPERTY: Tm (°C)

[[record]]
sequence_content = "GCTCAGCGAAAGCTAGC (((.(((....))))))"
reported_property = "Tm"
value_reported = 49.4

[[record]]
sequence_content = "GGGTGCGGAAACGCACTC (.(((((....))))).)"
reported_property = "Tm"
value_reported = 59.4

[[record]]
sequence_content = "GATCCGCTCCCGGATC ((((((....))))))"
reported_property = "Tm"
value_reported = 56.9

[[record]]
sequence_content = "CGCGTTCGGAAACGAGCG (((..(((....))))))"
reported_property = "Tm"
value_reported = 48.5

[[record]]
sequence_content = "GGATCTACGAAAGTATCC (((..(((....))))))"
reported_property = "Tm"
value_reported = 32.9

[[record]]
sequence_content = "GGACGAGGAAACTTGTCC ((((.((....)).))))"
reported_property = "Tm"
value_reported = 50.7

[[record]]
sequence_content = "GATCTAGATTAGATC ((((((...))))))"
reported_property = "Tm"
value_reported = 36.2

[[record]]
sequence_content = "GTTGGCGGAAACGCTAAC (((.(((....))).)))"
reported_property = "Tm"
value_reported = 53.1

[[record]]
sequence_content = "GATCTTGAGGAAGATC ((((((....))))))"
reported_property = "Tm"
value_reported = 36.8

[[record]]
sequence_content = "GCGTGGCCGAAAGGCCGC (((..(((....))))))"
reported_property = "Tm"
value_reported = 57.2

[[record]]
sequence_content = "GCGTCCAGACGC ((((....))))"
reported_property = "Tm"
value_reported = 56.6

[[record]]
sequence_content = "GCAACGCCGAAAGGCTGC (((..(((....))))))"
reported_property = "Tm"
value_reported = 47.8


----------
Measured folding enthalpy of individual entries
ASSAY_INFO: folding enthalpy; higher = less favourable; fluorescence melt of hairpins on a sequencing array, two-state fit
REPORTED_CONDITIONS: sodium 0.088 M
REPORTED_PROPERTY: folding enthalpy (kcal/mol)

[[record]]
sequence_content = "GATCGAAAAATCGATC ((((((....))))))"
value_reported = -25.5

[[record]]
sequence_content = "GCGCATCCGAAAGGACGC (((..(((....))))))"
value_reported = -20.5

[[record]]
sequence_content = "GCATGTCGAAAGACGTGC (((.(((....))).)))"
value_reported = -36.8

[[record]]
sequence_content = "GCTGCGGGAAACCACAGC ((((.((....)).))))"
value_reported = -37.5

[[record]]
sequence_content = "GGCCGTGGAAACGCGGTC (.(((.(....).))).)"
value_reported = -30.3

[[record]]
sequence_content = "GTTGAGACGAAAGTCAAC (((..(((....))))))"
value_reported = -15.6

[[record]]
sequence_content = "GTGCTCGGAAACGGGTAC ((.(.((....)).).))"
value_reported = -32.8

[[record]]
sequence_content = "GCGAGGCGAAAGCAACGC (((..((....))..)))"
value_reported = -21.6

[[record]]
sequence_content = "GCACAGCGAAAGCGATGC (((..((....))..)))"
value_reported = -15.8

[[record]]
sequence_content = "GATCCTCGGCAGGATC ((((((....))))))"
value_reported = -29.4

[[record]]
sequence_content = "GTTGTCGAAAGACTTAAC ((((((....)))..)))"
value_reported = -10

[[record]]
sequence_content = "GACTACGAAAGTATGGTC ((((((....)))..)))"
value_reported = -19.5

[[record]]
sequence_content = "GATCTCAGAGGAGATC ((((((....))))))"
value_reported = -32.9

[[record]]
sequence_content = "GCTCAGCGAAAGCTCAGC (((.(((....))).)))"
value_reported = -15

[[record]]
sequence_content = "GATCTATAATAGATC ((((((...))))))"
value_reported = -21.8

[[record]]
sequence_content = "GATCGTGCGAACGATC ((((((....))))))"
value_reported = -32.9

[[record]]
sequence_content = "CGTACGGAAACGTCTACG ((((((....)))..)))"
value_reported = -14.7

[[record]]
sequence_content = "GTAAGCGGAAACGTTTGC (.((.((....)).)).)"
value_reported = -14.9

[[record]]
sequence_content = "GATCGGAAACCGATC ((((((...))))))"
value_reported = -38

[[record]]
sequence_content = "GTTCGCGAAAGCGGAAC ((((((....))).)))"
value_reported = -17.6

[[record]]
sequence_content = "GCGAGTCGAAAGACACGC (((.(((....))).)))"
value_reported = -38.4

[[record]]
sequence_content = "GATCGGCCATCCGATC ((((((....))))))"
value_reported = -40.4

[[record]]
sequence_content = "GTACCGGGAAACCGGTAC (((((((....)))))))"
value_reported = -29.2

[[record]]
sequence_content = "GCTAGAGCGAAAGCTAGC (((..(((....))))))"
value_reported = -21.7

[[record]]
sequence_content = "GCTGTCGAAAGACATAGC ((((((....)))..)))"
value_reported = -16.4

[[record]]
sequence_content = "GGTTACACGAAAGTGACC (((..(((....))))))"
value_reported = -16.6

[[record]]
sequence_content = "GATCCGCCTGCGGATC ((((((....))))))"
value_reported = -40.3

[[record]]
sequence_content = "GAATGAGGAAACCCATTC (((((.(....).)))))"
value_reported = -20.9

[[record]]
sequence_content = "GCAAACGAAAGTTAATGC ((((((....)))..)))"
value_reported = -14.7

[[record]]
sequence_content = "GGTATTGGAAACAATACC (((((((....)))))))"
value_reported = -43.7

[[record]]
sequence_content = "GCATGTGGAAACGCATGC (((((.(....).)))))"
value_reported = -44.7

[[record]]
sequence_content = "GCATTGCGAAAGCTATGC ((((.((....)).))))"
value_reported = -38.9

[[record]]
sequence_content = "GTGGCGGGAAACCACCAC ((((.((....)).))))"
value_reported = -35.4

[[record]]
sequence_content = "GGGGAAGGAAACTTCCCC (((((((....)))))))"
value_reported = -30.4

[[record]]
sequence_content = "GCCAACCGAAAGGTGGGC (((.(((....))).)))"
value_reported = -40.6

[[record]]
sequence_content = "GCGTTTGGAAACAAACGC (((((((....)))))))"
value_reported = -41.4

[[record]]
sequence_content = "GATCCACCTCTGGATC ((((((....))))))"
value_reported = -33

[[record]]
sequence_content = "GTATACCGAAAGGTCTAC (((.(((....))).)))"
value_reported = -22.4

[[record]]
sequence_content = "GCGGATGGAAACATCCAC (.(((((....))))).)"
value_reported = -14.7

[[record]]
sequence_content = "GGGATGCGAAAGCAACCC (((.(((....))).)))"
value_reported = -24.4

[[record]]
sequence_content = "GTCAACGAAAGTTACGAC ((((((....)))..)))"
value_reported = -16.4

[[record]]
sequence_content = "GGTAGGGGAAACCTTGCC ((.(.((....)).).))"
value_reported = -20.2

[[record]]
sequence_content = "GCGTGTGGAAACACGTGC ((..(((....)))..))"
value_reported = -19.1

[[record]]
sequence_content = "GGTGTAGGAAACTACACC (((((((....)))))))"
value_reported = -44.8

[[record]]
sequence_content = "CGCGGAAGACTCCGCG ((((((....))))))"
value_reported = -41.6

[[record]]
sequence_content = "GATCTCTGCGGAGATC ((((((....))))))"
value_reported = -43.7

[[record]]
sequence_content = "CGAACGGAAACGTCTCG ((((((....))).)))"
value_reported = -29.3

[[record]]
sequence_content = "GAGTGGGCGAAAGCCCTC (((..(((....))))))"
value_reported = -8.27

[[record]]
sequence_content = "GGGACCGAAAGGTGTCCC ((((((....)))..)))"
value_reported = -23.4

[[record]]
sequence_content = "GCCCTCGAAAGAGGAGGC ((((((....)))..)))"
value_reported = -17

